- METHOD DESCRIPTION: Toxicological evaluation (with toxicokinetics) of rats administered for 21 consecutive days
- PARTICULARS: male, SD, rat, in vivo, po, 20 mg/kg/day, male, oral 20 mg/kg/day, Day 21
METRIC NAME: Cmax (µM)
Answer with a number only, understood to be in µM.

Measured Cmax, "Cn1cc(-c2cnc(CNc3nccn4c(-c5cc(F)cc(F)c5)cnc34)cn2)ccc1=O" : 7.34

* * *

- METHOD DESCRIPTION: Toxicological evaluation (with toxicokinetics) of rats administered for 21 consecutive days
- PARTICULARS: male, SD, rat, in vivo, po, 10 mg/kg/day, male, oral 10 mg/kg/day, Day 1
METRIC NAME: Tmax (h)
Answer with a number only, understood to be in h.

Measured Tmax, "Cn1cc(-c2cnc(CNc3nccn4c(-c5cc(F)cc(F)c5)cnc34)cn2)ccc1=O" : 4
